Biological target: EGFR Fab
Assay: ELISA binding of peptides to EGFR Fab
Settings: read-out: EC50 for peptide binding to αEGFR Fab; Table 16
pEC50: −log10 of the molar value.
Measured pEC50 of individual entries

State measured pEC50 of the compound CC(C)[C@@H]1NC(=O)[C@H](Cc2c[nH]c3ccccc23)NC(=O)[C@H]([C@@H](C)O)NC(=O)[C@H](CC(N)=O)NC(=O)[C@H](CC(=O)O)NC(=O)[C@H](CCC(N)=O)NC(=O)CNC(=O)[C@@H](NC(=O)[C@@H](N)Cc2ccc(O)cc2)CSSC[C@@H](C(=O)N[C@@H](Cc2ccccc2)C(=O)O)NC(=O)CNC(=O)[C@H](CCC(=O)O)NC(=O)[C@H](CCCNC(=N)N)NC1=O [Peptide-6] with EGFR Fab.
6.34

Using EGFR Fab as the test system, report measured pEC50 of CSCC[C@@H]1NC(=O)[C@H](C(C)C)NC(=O)[C@H]([C@@H](C)O)NC(=O)[C@@H](NC(=O)[C@H](C)N)CSSC[C@@H](C(=O)N[C@H](C(=O)O)C(C)C)NC(=O)[C@H](CCCNC(=N)N)NC(=O)[C@H](C(C)C)NC(=O)[C@H](CCC(=O)O)NC(=O)[C@H](CCC(N)=O)NC(=O)[C@H](CCCNC(=N)N)NC(=O)[C@H](C)NC(=O)CNC1=O [Peptide-13] .
< 6.00

Provide pEC50, tested on EGFR Fab, for CC[C@H](C)[C@@H]1NC(=O)[C@H](CC(C)C)NC(=O)[C@H](C)NC(=O)[C@@H]2CCCN2C(=O)[C@@H](NC(=O)[C@@H]2CCCN2)CSSC[C@@H](C(=O)N[C@H](C(=O)O)C(C)C)NC(=O)[C@H]([C@@H](C)CC)NC(=O)[C@H](C(C)C)NC(=O)[C@H](CCC(=O)O)NC(=O)[C@H](C)NC(=O)[C@H](C(C)C)NC(=O)[C@H](CC(=O)O)NC1=O [Peptide-14] .
< 6.00
